Data origin: patent US7763648B2

- Tested on: A549 Human lung carcinoma cells
- Experiment Notes: A549 Human Lung Cell Assay (transfected, dexamethasone challenge, Luc-assay)
- Type: cell-based
- Assay Conditions: Dexamathasone challenge, 24 h
Experimental Endpoint: pIC50
Give bare numbers, as −log10 of the molar value.

Answered examples (2):
Molecule	Tested System	pIC50
CN(C)c1ccc([C@H]2C[C@@]3(C)[C@@H](CC[C@@]3(O)C#Cc3ccc(Cl)cc3)[C@@H]3OCC4=CC(=O)CCC4=C32)cc1	A549 Human lung carcinoma cells	7.36
CN(C)c1ccc([C@H]2C[C@@]3(C)[C@@H](CC[C@@]3(O)C#Cc3ccsc3)[C@@H]3OCC4=CC(=O)CCC4=C32)cc1	A549 Human lung carcinoma cells	7.25

With those in mind, consider the next molecule.
Look at this molecule and give its reported pIC50. COCC#C[C@]1(O)CC[C@H]2[C@@H]3OCC4=CC(=O)CCC4=C3C(c3ccc(N(C)C)cc3)C[C@@]21C (stereo in doubt)
6.50

* * *

- Tested on: A549 Human lung carcinoma cells
- Experiment Notes: A549 Human Lung Cell Assay (transfected, dexamethasone challenge, Luc-assay)
- Assay type: cell-based
- Assay Conditions: Dexamathasone challenge, 24 h
Experimental Endpoint: IC50 (nM)
Numbers only, in nM.

Answered examples (8):
Molecule	IC50 (nM)
CN(C)c1ccc([C@H]2C[C@@]3(C)[C@@H](CC[C@@]3(O)C#Cc3ccc(Br)cc3)[C@@H]3OCC4=CC(=O)CCC4=C32)cc1 [Compound 11]	31.3
CN(C)c1ccc([C@H]2C[C@@]3(C)[C@@H](CC[C@@]3(O)C#Cc3ccccc3Br)[C@@H]3OCC4=CC(=O)CCC4=C32)cc1 [Compound 21]	62.7
CN(C)c1ccc([C@H]2C[C@@]3(C)[C@@H](CC[C@@]3(O)C#Cc3cc(F)cc(F)c3)[C@@H]3OCC4=CC(=O)CCC4=C32)cc1 [Compound 18]	34.4
CN(C)c1ccc([C@H]2C[C@@]3(C)[C@@H](CC[C@@]3(O)C#Cc3ccccc3)[C@@H]3OCC4=CC(=O)CCC4=C32)cc1 [Compound 3]	304
Cc1ccccc1C#C[C@]1(O)CC[C@H]2[C@@H]3OCC4=CC(=O)CCC4=C3[C@@H](c3ccc(N(C)C)cc3)C[C@@]21C [Compound 24]	113
CN(C)c1ccc(C2C[C@@]3(C)[C@@H](CC[C@@]3(O)C#Cc3ccncc3)[C@@H]3OCC4=CC(=O)CCC4=C23)cc1 (stereo in doubt) [Compound 28]	246
CN(C)c1ccc([C@H]2C[C@@]3(C)[C@@H](CC[C@@]3(O)C#Cc3ccccc3C(F)(F)F)[C@@H]3OCC4=CC(=O)CCC4=C32)cc1 [Compound 22]	51
CN(C)c1ccc(C2C[C@@]3(C)[C@@H](CC[C@@]3(O)C#CC(C)(C)C)[C@@H]3OCC4=CC(=O)CCC4=C23)cc1 (stereo in doubt) [Compound 5]	167

Would you mind listing IC50 for each of the following molecules?
1. CN(C)c1ccc([C@H]2C[C@@]3(C)[C@@H](CC[C@@]3(O)C#Cc3ccccc3F)[C@@H]3OCC4=CC(=O)CCC4=C32)cc1 [Compound 16]
2. CN(C)c1ccc(C2C[C@@]3(C)[C@@H](CC[C@@]3(O)C#CC(C)(C)O)[C@@H]3OCC4=CC(=O)CCC4=C23)cc1 (stereo in doubt) [Compound 6]

65.1
559

* * *

- Tested on: T47D human breast cancer cells
- Experiment Notes: T47D Human Breast Cancer Cells Assay (alkaline phosphatase)
- Format: cell-based
- Assay Conditions: 24 h with test compound, luminescence
Kindly state pIC50 for each of the entries shown.
One number for each entry, as −log10 of the molar value.

Answered examples (2):
Molecule	Measured Number
Cc1ccc(C#C[C@]2(O)CC[C@H]3[C@@H]4OCC5=CC(=O)CCC5=C4[C@@H](c4ccc(N(C)C)cc4)C[C@@]32C)cc1	8.80
CN(C)c1ccc([C@H]2C[C@@]3(C)[C@@H](CC[C@@]3(O)C#Cc3ccccc3Br)[C@@H]3OCC4=CC(=O)CCC4=C32)cc1	8.07

Look at this molecule and give its reported pIC50. COCC#C[C@]1(O)CC[C@H]2[C@@H]3OCC4=CC(=O)CCC4=C3C(c3ccc(N(C)C)cc3)C[C@@]21C (stereo in doubt)
6.22

* * *

Kindly state IC50 for each of the entries shown.
- Test system: A549 Human lung carcinoma cells
- Experiment Notes: A549 Human Lung Cell Assay (transfected, dexamethasone challenge, Luc-assay)
- Type: cell-based
- Assay Conditions: Dexamathasone challenge, 24 h
Give bare numbers, in µM.

Molecular String	IC50 (µM)
CN(C)c1ccc([C@H]2C[C@@]3(C)[C@@H](CC[C@@]3(O)C#Cc3ccc(C(F)(F)F)cc3)[C@@H]3OCC4=CC(=O)CCC4=C32)cc1	0.111
CN(C)c1ccc([C@H]2C[C@@]3(C)[C@@H](CC[C@@]3(O)C#Cc3cccc(Cl)c3)[C@@H]3OCC4=CC(=O)CCC4=C32)cc1	0.0489

Would you mind listing IC50 for each of the following compounds?
1. CN(C)c1ccc([C@H]2C[C@@]3(C)[C@@H](CC[C@@]3(O)C#Cc3ccc(C#N)cc3)[C@@H]3OCC4=CC(=O)CCC4=C32)cc1
2. CN(C)c1ccc([C@H]2C[C@@]3(C)[C@@H](CC[C@@]3(O)C#Cc3cccc(C(F)(F)F)c3)[C@@H]3OCC4=CC(=O)CCC4=C32)cc1

[0.0413, 0.0454]

Look at this compound and give its reported IC50. CN(C)c1ccc([C@H]2C[C@@]3(C)[C@@H](CC[C@@]3(O)C#Cc3cccc(F)c3)[C@@H]3OCC4=CC(=O)CCC4=C32)cc1
0.0566

* * *

- Tested on: T47D human breast cancer cells
- Experiment Notes: T47D Human Breast Cancer Cells Assay (alkaline phosphatase)
- Type: cell-based
- Assay Conditions: 24 h with test compound, luminescence
Experimental Endpoint: log10 IC50 (log10 of the value in nM)
Please be aware that the numbers have been log10-transformed from IC50 in nM.

Answered examples (2):
Compound	Measured Number
COc1ccc(C#C[C@]2(O)CC[C@H]3[C@@H]4OCC5=CC(=O)CCC5=C4[C@@H](c4ccc(N(C)C)cc4)C[C@@]32C)cc1	0.51
CN(C)c1ccc(C2C[C@@]3(C)[C@@H](CC[C@@]3(O)C#CC(F)(F)F)[C@@H]3OCC4=CC(=O)CCC4=C23)cc1 (stereo in doubt)	1.27

Would you mind listing log10 IC50 for each of the following compounds?
1. CN(C)c1ccc([C@H]2C[C@@]3(C)[C@@H](CC[C@@]3(O)C#Cc3ccc(Cl)cc3)[C@@H]3OCC4=CC(=O)CCC4=C32)cc1
2. CN(C)c1ccc([C@H]2C[C@@]3(C)[C@@H](CC[C@@]3(O)C#Cc3ccsc3)[C@@H]3OCC4=CC(=O)CCC4=C32)cc1
3. CN(C)c1ccc(C2C[C@@]3(C)[C@@H](CC[C@@]3(O)C#Cc3cccnc3)[C@@H]3OCC4=CC(=O)CCC4=C23)cc1 (stereo in doubt)
4. CN(C)c1ccc([C@H]2C[C@@]3(C)[C@@H](CC[C@@]3(O)C#Cc3cccc(F)c3)[C@@H]3OCC4=CC(=O)CCC4=C32)cc1
5. CN(C)c1ccc([C@H]2C[C@@]3(C)[C@@H](CC[C@@]3(O)C#Cc3ccc(Br)cc3)[C@@H]3OCC4=CC(=O)CCC4=C32)cc1
6. C#C[C@]1(O)CC[C@H]2[C@@H]3OCC4=CC(=O)CCC4=C3C(c3ccc(N(C)C)cc3)C[C@@]21C (stereo in doubt)

[-0.21, 0.19, 1.32, 0.01, -0.03, 1.28]

Would you mind listing log10 IC50 for each of the following compounds?
1. CN(C)c1ccc([C@H]2C[C@@]3(C)[C@@H](CC[C@@]3(O)C#Cc3ccccc3C(F)(F)F)[C@@H]3OCC4=CC(=O)CCC4=C32)cc1
2. CN(C)c1ccc(C2C[C@@]3(C)[C@@H](CC[C@@]3(O)C#Cc3ccncc3)[C@@H]3OCC4=CC(=O)CCC4=C23)cc1 (stereo in doubt)

1. 0.50
2. 1.59

* * *

- Test system: A549 Human lung carcinoma cells
- Experiment Notes: A549 Human Lung Cell Assay (transfected, dexamethasone challenge, Luc-assay)
- Type: cell-based
- Assay Conditions: Dexamathasone challenge, 24 h
Kindly state log10 IC50 for each of the entries shown.
Please be aware that the numbers have been log10-transformed from IC50 in nM.

Answered examples (8):
Molecule	Measured Number
CN(C)c1ccc(C2C[C@@]3(C)[C@@H](CC[C@@]3(O)C#CC(F)(F)F)[C@@H]3OCC4=CC(=O)CCC4=C23)cc1 (stereo in doubt)	1.74
CN(C)c1ccc(C2C[C@@]3(C)[C@@H](CC[C@@]3(O)C#Cc3cccnc3)[C@@H]3OCC4=CC(=O)CCC4=C23)cc1 (stereo in doubt)	2.53
CC#C[C@]1(O)CC[C@H]2[C@@H]3OCC4=CC(=O)CCC4=C3[C@@H](c3ccc(N(C)C)cc3)C[C@@]21C	1.94
Cc1cccc(C#C[C@]2(O)CC[C@H]3[C@@H]4OCC5=CC(=O)CCC5=C4[C@@H](c4ccc(N(C)C)cc4)C[C@@]32C)c1	1.56
CN(C)c1ccc([C@H]2C[C@@]3(C)[C@@H](CC[C@@]3(O)C#CC3CC3)[C@@H]3OCC4=CC(=O)CCC4=C32)cc1	1.52
CN(C)c1ccc([C@H]2C[C@@]3(C)[C@@H](CC[C@@]3(O)C#Cc3ccccc3Cl)[C@@H]3OCC4=CC(=O)CCC4=C32)cc1	1.81
COc1ccc(C#C[C@]2(O)CC[C@H]3[C@@H]4OCC5=CC(=O)CCC5=C4[C@@H](c4ccc(N(C)C)cc4)C[C@@]32C)cc1	1.90
CN(C)c1ccc([C@H]2C[C@@]3(C)[C@@H](CC[C@@]3(O)C#Cc3ccc(F)cc3)[C@@H]3OCC4=CC(=O)CCC4=C32)cc1	1.58

Would you mind listing log10 IC50 for each of the following molecules?
1. Cc1ccc(C#C[C@]2(O)CC[C@H]3[C@@H]4OCC5=CC(=O)CCC5=C4[C@@H](c4ccc(N(C)C)cc4)C[C@@]32C)cc1
2. C#C[C@]1(O)CC[C@H]2[C@@H]3OCC4=CC(=O)CCC4=C3C(c3ccc(N(C)C)cc3)C[C@@]21C (stereo in doubt)
3. CN(C)c1ccc(C2C[C@@]3(C)[C@@H](CC[C@@]3(O)C#Cc3ccccn3)[C@@H]3OCC4=CC(=O)CCC4=C23)cc1 (stereo in doubt)
4. CN(C)c1ccc(C2C[C@@]3(C)[C@@H](CC[C@@]3(O)C#Cc3ccc(C(C)(C)C)cc3)[C@@H]3OCC4=CC(=O)CCC4=C23)cc1 (stereo in doubt)

[1.34, 2.31, 2.24, 1.82]
